Assay: Cytotoxicity assay
Conditions: human, HEK293 embryonic kidney cells
observable: IC50 at 48 h

Give its IC50 at 48 h value. Item: `CO[C@H]1CN(c2ccc(C(C)(C)O)nn2)CC[C@H]1NC(=O)c1[nH]c(C)c(Cl)c1Cl`
> 10 µM

---

Assay: Mouse acute toxicity test
Parameters: species or system ICR mice
Conditions: both, ICR, in vivo, po
observable: LD50 at 7 days

Would you mind telling me what LD50 at 7 days value was observed for `CO[C@H]1CN(c2ccc(C(C)(C)O)nn2)CC[C@H]1NC(=O)c1[nH]c(C)c(Cl)c1Cl` ?
> 800 mg/kg

---

Test: Pharmacokinetics study on beagle dogs
Type: in vivo
Conditions: both, beagle, dog, plasma, po, 1 mg/kg
observable: MRT last (h)
One number for each entry, in h.

Endpoint output: MRT last of CO[C@H]1CN(c2ccc(C(C)(C)O)nn2)CC[C@H]1NC(=O)c1[nH]c(C)c(Cl)c1Cl [Compound 28] . Value?
9.07
